Documented ΔTm across a set of compounds
# experimentalSystem: UniProtKB P55201
# Sequence (whole entry): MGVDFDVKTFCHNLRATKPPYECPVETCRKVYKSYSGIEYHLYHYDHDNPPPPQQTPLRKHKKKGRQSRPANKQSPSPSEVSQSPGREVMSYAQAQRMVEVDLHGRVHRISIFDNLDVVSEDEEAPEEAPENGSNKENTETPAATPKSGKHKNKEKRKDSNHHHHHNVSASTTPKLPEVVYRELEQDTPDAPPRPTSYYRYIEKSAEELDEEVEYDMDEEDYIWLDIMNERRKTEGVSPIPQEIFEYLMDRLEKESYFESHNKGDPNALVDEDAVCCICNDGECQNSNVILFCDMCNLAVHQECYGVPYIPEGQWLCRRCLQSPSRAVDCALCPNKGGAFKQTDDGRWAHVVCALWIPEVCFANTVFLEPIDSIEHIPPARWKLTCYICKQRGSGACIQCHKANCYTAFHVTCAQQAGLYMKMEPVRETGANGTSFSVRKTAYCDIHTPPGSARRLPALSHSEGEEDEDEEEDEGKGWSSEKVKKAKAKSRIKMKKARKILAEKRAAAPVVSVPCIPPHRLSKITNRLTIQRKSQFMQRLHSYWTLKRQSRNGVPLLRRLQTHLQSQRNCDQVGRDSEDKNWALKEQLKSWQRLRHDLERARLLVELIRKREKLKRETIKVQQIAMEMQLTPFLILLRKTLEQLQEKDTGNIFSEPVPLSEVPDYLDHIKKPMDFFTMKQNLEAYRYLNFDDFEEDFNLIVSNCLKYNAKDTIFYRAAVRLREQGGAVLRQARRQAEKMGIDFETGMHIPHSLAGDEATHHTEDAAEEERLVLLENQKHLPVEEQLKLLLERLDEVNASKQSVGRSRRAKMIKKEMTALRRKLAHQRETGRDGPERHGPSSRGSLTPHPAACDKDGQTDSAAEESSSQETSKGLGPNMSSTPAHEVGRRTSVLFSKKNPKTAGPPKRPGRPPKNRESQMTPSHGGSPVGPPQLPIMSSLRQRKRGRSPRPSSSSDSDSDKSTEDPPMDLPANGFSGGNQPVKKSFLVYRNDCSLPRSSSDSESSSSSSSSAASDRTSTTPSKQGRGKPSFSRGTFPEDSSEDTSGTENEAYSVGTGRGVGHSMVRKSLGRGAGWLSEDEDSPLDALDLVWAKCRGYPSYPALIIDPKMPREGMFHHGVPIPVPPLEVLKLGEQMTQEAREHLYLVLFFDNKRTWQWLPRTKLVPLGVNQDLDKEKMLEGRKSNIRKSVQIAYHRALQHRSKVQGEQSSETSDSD
# details: Compound concentration 20.0 uM
Residues, ends and D or L forms follow the SMILES beside them.
readout: ΔTm

{"columns": ["compound", "recordedResult"],
 "data": [
  ["Nc1ncnc2c1c(I)cn2[C@@H]1O[C@H](CO)[C@@H](O)[C@H]1O", "2.98 °C"],
  ["CCCCCCCCCCCCCCCCNNC(=O)c1cccs1", "-0.84 °C"],
  ["CCC(=O)N1CCOc2c(cc(-c3cc(OC)cc(OC)c3)cc2C(=O)N[C@H]2CCCN(C)C2)C1", "-0.83 °C"],
  ["Cc1[nH]c2c(N3CCO[C@H](CO)C3)c(C#N)c(C(F)(F)F)nc2c1Cl", "1.11 °C"],
  ["COC(=O)c1ccc(CN2CCC(O)(Cn3cnc4c(-c5ccc(CN)cc5)n(C)nc4c3=O)CC2)c(Cl)c1", "1.55 °C"],
  ["N#Cc1cccnc1N1CCN(C(=O)c2cccc(Cc3n[nH]c(=O)c4ccccc34)c2)CC1", "1.88 °C"],
  ["CN(Cc1cc(Br)cc(Br)c1N)C1CCCCC1", "1.45 °C"],
  ["Cc1cc(/N=N/c2ccc3c(c2)CCC(=O)N3)c(N)cc1O", "1.01 °C"],
  ["COc1ccc(CNc2nc(N3CCC[C@H]3CO)ncc2C(=O)NCc2ncccn2)cc1Cl", "0.12 °C"],
  ["CCCN1CCN(c2ccc(C(=O)NC3(C(=O)NCC#N)CCCCC3)cc2)CC1", "-1.09 °C"],
  ["Cc1cc(C)c(CNC(=O)c2cc(-c3ccc(N4CCN(C)CC4)nc3)cc3c2c(C)cn3C(C)C)c(=O)[nH]1", "-1.27 °C"],
  ["CC(=O)N[C@@H](CC(C)C)C(=O)N[C@@H](CCC(=O)O)C(=O)N[C@H](C(=O)N[C@H](C=O)CC(=O)O)C(C)C (Ac-LEVD-aldehyde)", "-1.25 °C"],
  ["COc1cc2c(NC3CCN(C4CCCCC4)CC3)nc(N3CCCN(C(C)C)CC3)nc2cc1OCCCN1CCCCC1", "-1.05 °C"],
  ["Cc1nc(Nc2ncc(C(=O)Nc3c(C)cccc3Cl)s2)cc(N2CCN(CCO)CC2)n1", "-0.2 °C"],
  ["O=C1/C(=N/Nc2ccc(S(=O)(=O)O)cc2)C(c2ccc([N+](=O)[O-])cc2)=NN1c1ccccc1", "0.37 °C"],
  ["CCS(=O)(=O)N1CC(CC#N)(n2cc(-c3ncnc4[nH]ccc34)cn2)C1", "-1.09 °C"],
  ["CCn1c(=S)[nH]c2cc3c(NCc4ccccc4N4CCC(CO)CC4)ncnc3cc21", "1.64 °C"],
  ["CS(=O)(=O)c1ccc(Oc2cc(F)cc(C#N)c2)c2c1C(O)C(F)C2 (centres undefined)", "0.86 °C"],
  ["NC(=O)c1cc(F)cc2c1C(=O)N(C1CCN(C3CCC(F)(F)CC3)CC1)C2", "-0.15 °C"]
]}

Data provenance: ChEMBL document CHEMBL5724796
